# System: acute myeloid leukemia cell line U937
# Experiment: Cancer cell proliferation inhibitory activity evaluation 2 (CCK-8), U937
# Format: cell-based
# Details: Homo sapiens, U-937; 10 μM, 72 hours, CCK-8 (Table 3); read-out: Cancer cell proliferation inhibitory activity U937
Give inhibition at 10 µM for every item shown.

Per the record, Cc1cc(-c2nc3c(Nc4cccc(S(N)(=O)=O)c4)c(Br)cnc3[nH]2)c(C)n1-c1ccc(S(=O)(=O)N2CCOCC2)cc1 has inhibition at 10 µM of < 10%

Per the record, CCS(=O)(=O)N1CC[C@H](Nc2c(Cl)cnc3[nH]c(-c4cc(C)n(-c5cc(NS(C)(=O)=O)ccc5C)c4C)nc23)C1 has inhibition at 10 µM of > 50%

Per the record, Cc1cc(-c2nc3c(Nc4cccc(S(N)(=O)=O)c4)c(Br)cnc3[nH]2)c(C)n1-c1cccc(S(=O)(=O)N2CCOCC2)c1 has inhibition at 10 µM of < 10%

Per the record, Cc1cc(-c2nc3c(Nc4cccc(S(N)(=O)=O)c4)c(Br)cnc3[nH]2)c(C)n1-c1cccc(C(=O)N2CCOCC2)c1 has inhibition at 10 µM of < 10%

Per the record, Cc1ccc(NS(C)(=O)=O)cc1-n1c(C)cc(-c2nc3c(Nc4cccc(S(N)(=O)=O)c4)c(Br)cnc3[nH]2)c1C has inhibition at 10 µM of < 10%

Per the record, CCN(CC)CCNC(=O)c1cccc(-n2c(C)cc(-c3nc4ncc(Br)c(N[C@H]5CCN(S(=O)(=O)CC)C5)c4[nH]3)c2C)c1 has inhibition at 10 µM of > 50%

Per the record, Cc1cc(-c2nc3c(Nc4cccc(S(N)(=O)=O)c4)c(Br)cnc3[nH]2)c(C)n1-c1ccc(N2CCOCC2)cc1 has inhibition at 10 µM of 10 to 50%

Per the record, CCS(=O)(=O)N1CC[C@H](Nc2c(Br)cnc3[nH]c(-c4cc(C)n(-c5ccc(N6CCOCC6)cc5)c4C)nc23)C1 has inhibition at 10 µM of 10 to 50%

----------
Give remaining binding at 0.5 µM for every item shown.
# Assay system: LRRK2 mutant (G2019S) (Homo sapiens (Human), UniProt Q5S007, G2019S)
# Sequence (Q5S007 whole entry G2019S, looked up): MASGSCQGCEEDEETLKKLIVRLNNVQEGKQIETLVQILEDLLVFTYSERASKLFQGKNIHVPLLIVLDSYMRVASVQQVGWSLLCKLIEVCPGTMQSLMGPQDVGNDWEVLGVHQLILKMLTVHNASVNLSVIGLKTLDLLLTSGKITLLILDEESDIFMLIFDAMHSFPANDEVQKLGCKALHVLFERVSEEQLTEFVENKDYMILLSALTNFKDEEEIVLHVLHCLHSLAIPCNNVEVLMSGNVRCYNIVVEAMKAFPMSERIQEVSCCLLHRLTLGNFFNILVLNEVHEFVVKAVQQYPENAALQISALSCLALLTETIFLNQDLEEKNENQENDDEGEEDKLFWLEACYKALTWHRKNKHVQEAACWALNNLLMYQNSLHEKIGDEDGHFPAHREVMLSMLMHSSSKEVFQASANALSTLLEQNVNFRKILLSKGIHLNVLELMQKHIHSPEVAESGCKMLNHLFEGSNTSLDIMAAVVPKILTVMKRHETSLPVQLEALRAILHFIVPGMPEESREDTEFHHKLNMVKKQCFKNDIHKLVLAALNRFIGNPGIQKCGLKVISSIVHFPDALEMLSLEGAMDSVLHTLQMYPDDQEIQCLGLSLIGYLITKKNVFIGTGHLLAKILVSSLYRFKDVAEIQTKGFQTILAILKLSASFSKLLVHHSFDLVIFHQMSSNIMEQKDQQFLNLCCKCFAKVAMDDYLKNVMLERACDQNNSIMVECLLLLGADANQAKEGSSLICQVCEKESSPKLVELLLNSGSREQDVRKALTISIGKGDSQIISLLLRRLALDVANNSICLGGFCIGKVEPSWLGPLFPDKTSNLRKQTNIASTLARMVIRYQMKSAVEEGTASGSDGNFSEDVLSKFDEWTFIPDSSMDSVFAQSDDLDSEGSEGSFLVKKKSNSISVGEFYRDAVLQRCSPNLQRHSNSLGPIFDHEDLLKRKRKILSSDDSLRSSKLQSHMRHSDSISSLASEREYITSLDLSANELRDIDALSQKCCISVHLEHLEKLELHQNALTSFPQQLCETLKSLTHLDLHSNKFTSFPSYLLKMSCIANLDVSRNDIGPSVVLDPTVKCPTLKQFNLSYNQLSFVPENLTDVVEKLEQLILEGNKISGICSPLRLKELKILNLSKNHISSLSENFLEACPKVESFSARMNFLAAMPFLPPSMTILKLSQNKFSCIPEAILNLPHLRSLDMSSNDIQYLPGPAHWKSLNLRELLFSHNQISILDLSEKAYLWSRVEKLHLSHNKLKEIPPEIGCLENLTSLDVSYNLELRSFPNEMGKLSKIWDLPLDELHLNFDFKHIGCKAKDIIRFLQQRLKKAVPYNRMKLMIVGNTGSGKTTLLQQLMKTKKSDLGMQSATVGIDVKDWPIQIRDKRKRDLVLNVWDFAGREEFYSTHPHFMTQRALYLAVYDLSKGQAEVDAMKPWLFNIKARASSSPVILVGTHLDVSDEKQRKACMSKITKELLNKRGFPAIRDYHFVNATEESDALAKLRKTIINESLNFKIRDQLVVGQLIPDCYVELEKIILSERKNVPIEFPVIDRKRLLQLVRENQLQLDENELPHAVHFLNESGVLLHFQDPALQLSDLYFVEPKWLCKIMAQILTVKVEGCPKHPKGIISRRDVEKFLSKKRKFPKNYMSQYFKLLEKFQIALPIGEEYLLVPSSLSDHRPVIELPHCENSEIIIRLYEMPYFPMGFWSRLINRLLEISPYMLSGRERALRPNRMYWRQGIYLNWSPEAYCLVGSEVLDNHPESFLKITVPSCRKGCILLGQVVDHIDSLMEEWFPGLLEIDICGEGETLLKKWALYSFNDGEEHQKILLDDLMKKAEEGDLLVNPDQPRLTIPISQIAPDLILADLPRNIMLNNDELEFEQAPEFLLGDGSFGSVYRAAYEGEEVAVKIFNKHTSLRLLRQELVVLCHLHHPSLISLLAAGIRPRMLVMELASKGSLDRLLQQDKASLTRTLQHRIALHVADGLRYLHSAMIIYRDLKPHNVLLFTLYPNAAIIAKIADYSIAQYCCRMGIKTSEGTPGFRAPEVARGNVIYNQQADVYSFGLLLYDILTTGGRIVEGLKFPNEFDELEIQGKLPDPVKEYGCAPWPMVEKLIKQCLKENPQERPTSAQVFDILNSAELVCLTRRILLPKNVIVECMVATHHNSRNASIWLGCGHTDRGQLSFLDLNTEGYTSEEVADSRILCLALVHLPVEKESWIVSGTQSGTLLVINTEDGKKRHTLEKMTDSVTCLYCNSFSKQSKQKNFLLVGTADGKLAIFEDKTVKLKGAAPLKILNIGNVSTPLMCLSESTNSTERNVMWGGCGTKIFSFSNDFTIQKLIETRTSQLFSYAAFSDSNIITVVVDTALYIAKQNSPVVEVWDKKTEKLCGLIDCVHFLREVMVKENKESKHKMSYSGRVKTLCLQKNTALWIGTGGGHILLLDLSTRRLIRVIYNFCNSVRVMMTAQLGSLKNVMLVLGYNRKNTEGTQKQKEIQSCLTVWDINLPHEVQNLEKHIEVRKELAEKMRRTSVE
# Experiment: Evaluation of inhibitory activity against LRRK2 (affinity bead competition binding), G2019S mutant
# Details: 500 nM; read-out: Residual active values (%) LRRK2(G2019S)

Per the record, Cc1ccc(C(=O)N2CCOCC2)cc1-n1c(C)cc(-c2nc3ncc(Br)c(Nc4cccc(S(N)(=O)=O)c4)c3[nH]2)c1C [Example 94] has remaining binding at 0.5 µM of 16%

Per the record, Cc1ccc(NC(=O)CN2CCOCC2)cc1-n1c(C)cc(-c2nc3ncc(Br)c(Nc4cccc(S(N)(=O)=O)c4)c3[nH]2)c1C [Example 88] has remaining binding at 0.5 µM of 19%

Per the record, CCS(=O)(=O)N1CC[C@H](Nc2c(Br)cnc3[nH]c(-c4cc(C)n(-c5cc(NS(C)(=O)=O)ccc5C)c4C)nc23)C1 [Example 7] has remaining binding at 0.5 µM of 1.5%

Per the record, CCS(=O)(=O)N1CC[C@H](Nc2c(Br)cnc3nc(-c4cc(C)n(-c5cccc(NS(C)(=O)=O)c5)c4C)[nH]c23)C1 [Example 12] has remaining binding at 0.5 µM of 0.5%

Per the record, CCS(=O)(=O)N1CC[C@H](Nc2c(Br)cnc3nc(-c4cc(C)n(-c5cccc(C(=O)N6CCN(C)CC6)c5C)c4C)[nH]c23)C1 [Example 81] has remaining binding at 0.5 µM of 0.1%

Per the record, Cc1ccc(C(=O)N2CCN(C)CC2)cc1-n1c(C)cc(-c2nc3ncc(Br)c(Nc4cccc(S(N)(=O)=O)c4)c3[nH]2)c1C [Example 95] has remaining binding at 0.5 µM of 24%

Per the record, CCS(=O)(=O)N1CC[C@H](Nc2c(Br)cnc3[nH]c(-c4cc(C)n(-c5cccc(S(=O)(=O)N6CCOCC6)c5)c4C)nc23)C1 [Example 11] has remaining binding at 0.5 µM of 1.7%
